src = patent US5840918A

Task for the reader: assign each of the following molecules its reported pIC50.
- Test system: H-ras farnesylation in H-ras (61L) transformed NIH3T3 fibroblasts
- PROTOCOL: Inhibition of H-ras farnesylation in whole cells (Western blot)
- Format: cell-based, mouse
- CONDITION_SUMMARY: Mus musculus, NIH3T3, 24 h, Table 2
Units for pIC50: none; it is -log10 of a concentration expressed in mol/L.

Report pIC50, nothing else, for this molecule: COC(=O)[C@H](CCSC)NCc1cc(C/C=C/[C@@H](N)CS)ccc1-c1ccccc1 [PM031] 4.60

Assign pIC50 to the following record: CSCCC(NC(=O)C(/C=C\[C@@H](/C=C/C(N)CS)C(C)C)C(C)C)C(=O)O (stereo partly drawn) [PD122] 6.40

# return recorded pIC50 for entry CSCC[C@H](NC(=O)C(Cc1ccccc1)NC[C@@H](/C=C/C(N)CS)C(C)C)C(=O)O (stereo partly drawn) [PA041] 5.46

Report pIC50, nothing else, for this molecule: COC(=O)[C@H](CCS(C)(=O)=O)NC(=O)c1cc(CCC[C@@H](N)CS)ccc1-c1ccsc1 [PM032] 4.71

Look up and state reported pIC50 for COC(=O)[C@H](CCSC)NC(=O)C(Cc1ccccc1)OC[C@@H](/C=C/C(N)CS)C(C)C (stereo partly drawn) [PE011] 8.00

Annotate the molecule CC[C@H](C)[C@H](NC[C@@H](/C=C/C(N)CS)C(C)C)C(=O)N[C@@H](CCSC)C(=O)O (stereo partly drawn) [PA051] with its measured pIC50. 5.72

Answer with the recorded pIC50 for the molecule listed here: CSCC[C@H](NC(=O)C(/C=C/[C@@H](/C=C/C(N)CS)C(C)(C)C)C(C)C)C(=O)O (single isomer, unassigned) [PD152] 6.49

State its pIC50: CS(=O)(=O)CC[C@H](NC(=O)c1cc(C/C=C/C(N)CS)ccc1-c1ccccc1)C(=O)O (stereo partly drawn) [PM161] 4.72

Please list pIC50 recorded for the molecule CSCC[C@H](NC(=O)c1cc(C/C=C/C(N)CS)ccc1-c1ccsc1)C(=O)O (stereo partly drawn) [PM021] 5.68

Output pIC50 of CC(C)[C@H](/C=C/C(N)CS)COC(Cc1ccccc1)C(=O)N[C@@H](CCS(C)(=O)=O)C(=O)O (stereo partly drawn) [PE031] 6.48

Tell me measured pIC50 for CCOC(=O)[C@H](CCSC)NC(=O)C(/C=C/[C@@H](/C=C/C(N)CS)Cc1ccccc1)C(C)C (stereo partly drawn) [PD351] please. 5.48

Kindly indicate its recorded pIC50. Item: COC(=O)C(CCSC)NC(=O)C(Cc1ccccc1)OCC(C=CC(N)CSSCC(N)C=CC(COC(Cc1ccccc1)C(=O)NC(CCSC)C(=O)OC)C(C)C)C(C)C (stereo not drawn) [PE051] 6.96

Return pIC50 (reported value) for this molecule: CSCC[C@H](NC(=O)C(/C=C/[C@@H](/C=C/C(N)CS)C(C)(C)C)C(C)C)C(=O)O (stereo partly drawn) [PD142] 5.14

For the molecule COC(=O)[C@H](CCS(C)(=O)=O)NC(=O)C(/C=C/[C@@H](/C=C/C(N)CS)C(C)C)C(C)C (stereo partly drawn) [PD132] , report pIC50. 5.59

# return recorded pIC50 for input CSCC[C@H](NC(=O)c1cc(C/C=C/C(N)CS)ccc1-c1ccccc1)C(N)=O (stereo partly drawn) [PM081] 4.63

Respond only with pIC50 recorded for COC(=O)[C@H](CCSC)N(C)C(=O)C(/C=C\[C@@H](/C=C/C(N)CS)C(C)C)Cc1ccccc1 (stereo partly drawn) [PD451] 6.40

Please list pIC50 recorded for the molecule COC(=O)[C@H](CCSC)NC(=O)C(Cc1ccccc1)NC[C@@H](/C=C/C(N)CS)C(C)C (stereo partly drawn) [PA091] 7.00

Assign pIC50 to the following record: CSCC[C@H](NC(=O)c1cc(C/C=C/C(N)CS)ccc1-c1cccs1)C(=O)O (stereo partly drawn) [PM182] 5.57

Indicate its recorded pIC50; the molecule in question is CSCCC(NC(=O)c1cc(CC=CC(N)CSSCC(N)C=CCc2ccc(-c3ccccc3)c(C(=O)NC(CCSC)C(=O)O)c2)ccc1-c1ccccc1)C(=O)O (stereo not drawn) [PM141] 5.01

====

- Test system: H-ras farnesylation in H-ras (61L) transformed NIH3T3 fibroblasts
- PROTOCOL: Inhibition of H-ras farnesylation in whole cells (Western blot)
- Format: cell-based, mouse
- CONDITION_SUMMARY: Mus musculus, NIH3T3, 24 h, Table 2
PARAMETER: pIC50
Please express pIC50 as -log10 of the molar concentration.

Determine its reported pIC50: CC(C)[C@@H](/C=C\C(Cc1ccccc1)C(=O)NC(CO)C(=O)O)/C=C/C(N)CS (stereo partly shown) 5.46

Give me measured pIC50, please, for this molecule: NC(/C=C/Cc1ccc(-c2ccsc2)c(C(=O)N[C@@H](Cc2cccs2)C(=O)O)c1)CS (stereo partly shown) 4.39

Note down pIC50 recorded for COC(=O)[C@H](CCS(C)(=O)=O)NC(=O)C(Cc1cccs1)NC[C@@H](/C=C/C(N)CS)C(C)C (stereo partly shown) 7.00

====

- ASSAY_SYSTEM: GGTase
- PROTOCOL: Inhibition of GGTase-mediated prenylation (in vitro prenylation assay)
- CONDITION_SUMMARY: Table 1; partially purified GGTase, 5 μM recombinant H-ras (61L, CAIL), 1 μM [3H] geranylgeranyl diphosphate
PARAMETER: IC50 (µM)
Note: unit µM is implicit; provide only the numeric part.

Quote IC50 with test system GGTase for CSCC[C@H](NC(=O)C(Cc1ccccc1)NC[C@@H](/C=C/C(N)CS)C(C)C)C(=O)O (some centres unmarked) 0.056

Give IC50; test system GGTase; molecule NC(C=CCc1ccc(-c2ccsc2)c(C(=O)NC(Cc2cccs2)C(=O)O)c1)CSSCC(N)C=CCc1ccc(-c2ccsc2)c(C(=O)NC(Cc2cccs2)C(=O)O)c1 (centres unmarked) 0.13

Provide IC50, recorded with GGTase, of COC(=O)[C@H](CCSC)NC(=O)C(Cc1ccccc1)NC[C@@H](/C=C/C(N)CS)C(C)C (some centres unmarked) 2.38

# lookup: GGTase IC50, key = CSCCC(NC(=O)C(/C=C\[C@@H](/C=C/C1CSC(C)(C)N1)C(C)C)Cc1ccccc1)C(=O)O (some centres unmarked) 0.014

Please indicate recorded IC50 of COC(=O)[C@H](CCSC)NCc1cc(C/C=C/[C@@H](N)CS)ccc1-c1ccccc1 measured with GGTase. 1.4

Give IC50 only, for CSCC[C@H](NCC(/C=C\[C@@H](/C=C/C(N)CS)C(C)C)Cc1ccccc1)C(=O)O (some centres unmarked) , using GGTase data. 1.08

State IC50 (GGTase) of CSCC[C@H](NC(=O)C(/C=C/[C@H](C)/C=C/C(N)CS)Cc1ccccc1)C(=O)O (some centres unmarked) . 0.17

Name the value of IC50 reported for COc1ccccc1-c1ccc(C/C=C/C(N)CS)cc1C(=O)N[C@@H](CCSC)C(=O)O (some centres unmarked) when tested on GGTase. 0.072

====

For each record, write down the corresponding IC50.
- System: H-ras farnesylation in H-ras (61L) transformed NIH3T3 fibroblasts
- PROTOCOL: Inhibition of H-ras farnesylation in whole cells (Western blot)
- Type: cell-based, mouse
- CONDITION_SUMMARY: Mus musculus, NIH3T3, 24 h, Table 2
Give the quantity in nM, number only.

Please indicate IC50 recorded for CC[C@H](C)[C@H](NC[C@@H](/C=C/C(N)CS)C(C)C)C(=O)N[C@@H](CCSC)C(=O)OC (some centres unmarked) 17

Indicate the recorded IC50 value for this compound: CSCC[C@H](NC(=O)c1cc(CCCC(N)CS)ccc1-c1ccsc1)C(=O)O (some centres unmarked) 13100

Identify measured IC50 corresponding to CC(C)C(/C=C/[C@@H](/C=C/C(N)CS)C(C)C)C(=O)N[C@@H](CCC(N)=O)C(=O)O (some centres unmarked) 400

Supply reported IC50 belonging to this compound: COC(=O)[C@H](CCS(C)(=O)=O)NC(=O)C(Cc1cccs1)N(C)C[C@@H](/C=C/C(N)CS)C(C)C (some centres unmarked) 80

Give recorded IC50. CSCC[C@H](NC(=O)C(NC[C@@H](/C=C/C(N)CS)C(C)C)C(C)C)C(=O)O (some centres unmarked) 580

Report IC50 for CCc1ccc(C/C=C/C(N)CS)cc1C(=O)N[C@@H](CCSC)C(=O)OC (some centres unmarked) 45

Read the entry CSCC[C@H](NC(=O)c1cc(C/C=C/C(N)CS)ccc1-c1ccccc1)C(=O)O (some centres unmarked) and write its reported IC50. 4800

Given the compound COC(=O)[C@H](CCSC)NC(=O)c1cc(CCCC(N)CS)ccc1-c1ccsc1 (some centres unmarked) , write its reported IC50. 1600
